Test system: K4 kissing-loop RNA reporter;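 further: bound reporter read as fluorescence of individual clusters on recovered sequencing chips by microscopy, with normalized cluster intensities fitted with a binding model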
Assay: apparent KD of K4 kissing-loop reporter; higher = weaker reporter binding
Conditions: Eterna round: R107; input ligand: theophylline 20 uM
For each entry below, report its apparent KD of K4 kissing-loop reporter value.
State the result as a value with its unit after it.

Please report the measured apparent KD of K4 kissing-loop reporter for GCUAUGGUAGGAAGGAGCGCUUACUCGGUCAUAAGAGUGAUGUUCGAGACCGAGUAUUUAUAGCAGGUAGGUCGCCUACUAUAGC [Arginine B K4 6]
199 nM

Indicate the recorded apparent KD of K4 kissing-loop reporter value for this sequence: AAAGUAUACUGAAGGAGCGAGUAGUGGAAACAUAAACUCAUUGCGAGUGAUGUUCGCAGUACUCAGGUAGGUCGCGGUAAUCGUA [Exclusion Arginine B Gf 12]
554 nM

Look up apparent KD of K4 kissing-loop reporter of GGAGCCGAUAGUGAUACCAGCCAGUGAUGUUGGCGAAGUCUCAUUUUCGCUCUCGGUAAGGGCCCUUGGCAGCACUUACUCGGAA [Arledied] and report it.
95.9 nM

Given AAAUCGUUCAGAAGGAGCGUGAAUUAUUCUUAAUUAUAUUAUACGAGUGAUGUUCGUGUUUCACAGGUAGGUCGCUGAUCGAUAA [JR_SSArginiB_Sub005] , respond with its apparent KD of K4 kissing-loop reporter.
148 nM

---

Tested on: MS2 coat protein
Assay: apparent KD of MS2 coat protein; designed switch direction (-1 OFF switch, 1 ON switch): -1; higher = weaker reporter binding
Settings: Eterna round: R95; input ligand: microRNA oligo, concentration not stated
Exercise: state measured apparent KD of MS2 coat protein for each of the sequences provided.
Write down the numeric answer in nM and omit the unit.

Tell me its apparent KD of MS2 coat protein given UAUAUGUCAGGAUAUCGCAACUGCGCGCGCAAGAAUCAUAACGAGAAGGGACAUGAGGAUCACCCAUGUACACU [I dont know] (puzzle: Exclusion 4) as the entry.
18.1

Dear colleague, please send me the reported apparent KD of MS2 coat protein for GGAAAGCAAGGAUAUACAAGUAAACGAUGGAAAGUAGAGAGACAUGAGGAUCACCCAUGUAGAAGGUGCGAGAG [JR_Exclu2_Sub036] (puzzle: Exclusion 2) when you can.
30.1

// Input: AAUAACAGAGGAUAUACUAUUUUAUGUGUUUGUUAUUUUGAACAUGAGGAUCACCCAUGUAGAAGGCUGAAUGA [JMF 65] (puzzle: Exclusion 2) . Output its apparent KD of MS2 coat protein only.
24.7

Specify reported apparent KD of MS2 coat protein for the sequence shown: CAGUACUGAGGAUAUACAUGAGGAUCACCCAUGUGUUCCAGCUAGGAAACUAGCAUAAGUAGAAGGCAGUACUG [salish99_ex3_r3_091x] (puzzle: Exclusion 3)
21.8

For AGUAACUAUCACGAAAGUGAUAGUUACACAAGUGAAUAAACAUGAGGAUCACCCAUGUCCUCAUUUGCUCGUCUUAU [Sensor 3 - 16] (puzzle: Sensor v3, turn-off variant 2) , write its apparent KD of MS2 coat protein.
365

Name the recorded apparent KD of MS2 coat protein of the item GAUGCUUCGGCAUCUACAAGCUUUUUGCUCGUCUUAUUAACAUGAGGAUCACCCAUGUACAAGAGACCUCAUGUAUU [Sensor v3 - turn-off variant 2 - 12] (puzzle: Sensor v3, turn-off variant 2) in your answer.
14.3

Origin of values: the supplement of paper PMC9170038
